MEASUREMENT TARGET: UniProt P31749
PROTOCOL TEXT: Luciferase-coupled chemiluminescence kinase assay (ATP consumption)
Assay type: biochemical
MEASUREMENT PARAMETERS: read-out: AKT-1 IC50
Experimental: One measure of inhibition is Ki. […] The Ki for a compound is determined from the IC50 based on three assumptions. First, only one compound molecule binds to the enzyme and there is no cooperativity. […] Kinase activity is measured as the percent of ATP consumed following the kinase reaction using luciferase-luciferin-coupled chemiluminescence. […] Total ATP consumption was limited to 25-60% and the IC50 values correlate well with those determined by radiometric assays.
QUANTITY NAME: IC50

INSERT INTO results (molecule, value_measured) VALUES
  ('CCc1n[nH]c2ncnc(N3CCN(c4cccc(Cl)c4)C(C(=O)NCCN4CCOCC4)C3)c12 (stereo not shown)', '≥ 10 µM'),
  ('Cc1ccc(Cl)cc1N1CCN(c2ncnc3[nH]nc(-c4ccc(C#N)cc4)c23)CC1', '1 to 10 µM'),
  ('Cc1ccc(Cl)cc1N1CCN(c2ncnc3[nH]nc(-c4cccc(O)c4)c23)CC1', '1 to 10 µM'),
  ('Cc1ccc(Cl)cc1N1CCN(c2ncnc3[nH]nc(-c4cccs4)c23)CC1', '1 to 10 µM');

###

MEASUREMENT TARGET: p70S6K (Homo sapiens, UniProt P23443)
Sequence (P23443 whole entry): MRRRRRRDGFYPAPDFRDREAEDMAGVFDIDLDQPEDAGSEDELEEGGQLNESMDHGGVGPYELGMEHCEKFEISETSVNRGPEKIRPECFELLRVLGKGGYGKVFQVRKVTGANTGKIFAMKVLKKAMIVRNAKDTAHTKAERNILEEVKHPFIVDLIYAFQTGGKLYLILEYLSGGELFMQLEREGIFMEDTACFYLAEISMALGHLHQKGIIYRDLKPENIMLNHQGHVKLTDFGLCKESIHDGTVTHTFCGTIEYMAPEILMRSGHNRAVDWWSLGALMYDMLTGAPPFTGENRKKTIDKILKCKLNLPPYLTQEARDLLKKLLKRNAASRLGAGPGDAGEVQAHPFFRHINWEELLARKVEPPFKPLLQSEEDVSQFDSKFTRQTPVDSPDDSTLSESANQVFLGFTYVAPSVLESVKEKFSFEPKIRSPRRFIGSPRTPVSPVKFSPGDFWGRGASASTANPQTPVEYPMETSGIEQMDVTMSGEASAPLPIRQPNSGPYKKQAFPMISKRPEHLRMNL
PROTOCOL TEXT: Luciferase-coupled chemiluminescence kinase assay (ATP consumption)
Type: biochemical
Experimental: One measure of inhibition is Ki. […] The Ki for a compound is determined from the IC50 based on three assumptions. First, only one compound molecule binds to the enzyme and there is no cooperativity. […] Kinase activity is measured as the percent of ATP consumed following the kinase reaction using luciferase-luciferin-coupled chemiluminescence. […] Total ATP consumption was limited to 25-60% and the IC50 values correlate well with those determined by radiometric assays.
QUANTITY NAME: IC50

INSERT INTO measurements (molecule, quantity_name, value_measured) VALUES
  ('Cc1ccc(Cl)cc1N1CCN(c2ncnc3[nH]nc(-c4cccs4)c23)CC1 [Entry 338]', 'IC50', '< 100 nM'),
  ('Cc1ccc(Cl)cc1N1CCN(c2ncnc3[nH]nc(/C=C4/C[C@H]5CNC[C@H]5C4)c23)CC1 [Entry 396]', 'IC50', '1000 to 10000 nM'),
  ('Cc1ccc(Cl)cc1N1CCN(c2ncnc3[nH]ncc23)CC1 [Entry 320]', 'IC50', '< 100 nM'),
  ('Cc1ccc(Cl)cc1N1CCN(c2ncnc3[nH]nc(-c4cccc(OCc5ccccc5)c4)c23)CC1 [Entry 336]', 'IC50', '1000 to 10000 nM');

###

MEASUREMENT TARGET: AktK (Homo sapiens, UniProt P31749)
Sequence (P31749 whole entry): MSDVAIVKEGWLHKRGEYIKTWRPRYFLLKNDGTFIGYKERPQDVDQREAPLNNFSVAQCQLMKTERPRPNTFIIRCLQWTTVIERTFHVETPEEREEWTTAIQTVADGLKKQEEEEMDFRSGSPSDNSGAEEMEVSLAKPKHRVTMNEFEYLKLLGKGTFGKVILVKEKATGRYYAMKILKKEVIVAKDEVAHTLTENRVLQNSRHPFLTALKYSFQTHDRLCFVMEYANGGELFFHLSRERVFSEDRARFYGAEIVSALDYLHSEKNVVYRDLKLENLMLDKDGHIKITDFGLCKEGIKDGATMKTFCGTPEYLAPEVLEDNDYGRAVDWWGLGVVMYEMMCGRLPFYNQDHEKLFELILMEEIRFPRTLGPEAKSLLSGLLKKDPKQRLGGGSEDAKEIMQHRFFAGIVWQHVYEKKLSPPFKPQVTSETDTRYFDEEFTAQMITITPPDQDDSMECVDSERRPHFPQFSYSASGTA
PROTOCOL TEXT: Luciferase-coupled chemiluminescence kinase assay (ATP consumption)
Type: biochemical
MEASUREMENT PARAMETERS: Table 1; class symbols per key; read-out: AKT-1 IC50
Protocol: One measure of inhibition is Ki. […] The Ki for a compound is determined from the IC50 based on three assumptions. First, only one compound molecule binds to the enzyme and there is no cooperativity. […] Kinase activity is measured as the percent of ATP consumed following the kinase reaction using luciferase-luciferin-coupled chemiluminescence. […] Total ATP consumption was limited to 25-60% and the IC50 values correlate well with those determined by radiometric assays.
QUANTITY NAME: IC50

INSERT INTO results (smiles_input, value_measured) VALUES
  ('Cc1c(NCCN2CCCC2)cc(CCc2ccccc2)cc1N1CCN(c2ncnc3[nH]nc(Br)c23)CC1', '< 0.1 µM'),
  ('Cc1c(OCCCN2CCN(C)CC2)cc(Cl)cc1N1CCN(c2ncnc3[nH]nc(C(F)(F)F)c23)CC1', '0.1 to 1 µM'),
  ('Cc1ccc(Cl)cc1N1CCN(c2ncnc3[nH]nc(Br)c23)C[C@@H]1C', '0.1 to 1 µM'),
  ('Brc1cc(NCCN2CCCC2)cc(N2CCN(c3ncnc4[nH]nc(Br)c34)CC2)c1', '< 0.1 µM'),
  ('Cc1c(OCCCN2CCOCC2)cc(Cl)cc1N1CCN(c2ncnc3[nH]nc(Br)c23)CC1', '0.1 to 1 µM'),
  ('Cc1ccc(Cl)cc1N1CCN(c2ncnc3[nH]nc(Br)c23)C[C@H]1C', '≥ 10 µM'),
  ('COc1cc(NCCN2CCCC2)c(C)c(N2CCN(c3ncnc4[nH]nc(Br)c34)CC2)c1', '0.1 to 1 µM'),
  ('CCc1cc(NCCN2CCCC2)c(C)c(N2CCN(c3ncnc4[nH]nc(Br)c34)CC2)c1', '0.1 to 1 µM'),
  ('Cc1c(NCCN2CCCC2)cc(C(=O)NOCC2CC2)cc1N1CCN(c2ncnc3[nH]nc(Br)c23)CC1', '0.1 to 1 µM'),
  ('CCN(CC)CCOc1cc(Cl)cc(N2CCN(c3ncnc4[nH]nc(C(F)(F)F)c34)CC2)c1C', '0.1 to 1 µM'),
  ('Cc1c(CCCN2CCCC2)cc(OCC(C)C)cc1N1CCN(c2ncnc3[nH]nc(Br)c23)CC1', '< 0.1 µM'),
  ('Cc1c(NCCN2CCCC2)cc(F)cc1N1CCN(c2ncnc3[nH]nc(Br)c23)CC1', '0.1 to 1 µM'),
  ('Clc1cc(Cl)cc(N2CCN(c3ncnc4[nH]nc(Br)c34)CC2)c1', '≥ 10 µM'),
  ('FC(F)(F)c1cccnc1N1CCN(c2ncnc3[nH]nc(Br)c23)CC1', '≥ 10 µM'),
  ('FC(F)(F)c1ccnc(N2CCN(c3ncnc4[nH]nc(Br)c34)CC2)n1', '≥ 10 µM'),
  ('Brc1ccc(N2CCN(c3ncnc4[nH]nc(Br)c34)CC2)cc1', '≥ 10 µM'),
  ('CCS(=O)(=O)c1cc(NCCN2CCCC2)c(C)c(N2CCN(c3ncnc4[nH]nc(Br)c34)CC2)c1', '< 0.1 µM');
